Molecular target: recombinant PRL-3 (Homo sapiens, UniProt O75365)
Construct: 6xHis (N, cleaved yes); made in house; host or cells: E. coli One Shot BL21 Star
Sequence (O75365 whole entry): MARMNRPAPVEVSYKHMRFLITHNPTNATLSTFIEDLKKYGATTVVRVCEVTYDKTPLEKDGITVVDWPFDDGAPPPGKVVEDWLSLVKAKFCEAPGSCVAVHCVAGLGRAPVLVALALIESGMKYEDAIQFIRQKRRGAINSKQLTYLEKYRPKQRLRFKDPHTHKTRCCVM
Test: In vitro phosphatase assay (DiFMUP hydrolysis), PRL-3; also: test concentration or dose not given here
Type: biochemical
Conditions: FDA-approved drug screen; activity compared to DMSO
Structures can show the parent of a compound that is named as a salt.
So I've got a bunch of compounds here, and I need their % Phosphatase Activity (compared to DMSO) PRL-3 values.
Give bare numbers, in %.

Known % Phosphatase Activity (compared to DMSO) PRL-3 results, listed for orientation:
{"COMPOUND": "CC(=O)Oc1cc(C(F)(F)F)ccc1C(=O)O [Triflusal]", "READOUT UNIT": "%", "READOUT NUMBER": 78}
{"COMPOUND": "CC(=O)[C@@]1(O)CC[C@H]2[C@@H]3CCC4=CC(=O)CCC4=C3[C@@H](c3ccc(N(C)C)cc3)C[C@@]21C [Ulipristal]", "READOUT UNIT": "%", "READOUT NUMBER": 79}
{"COMPOUND": "CN(C)CCc1c[nH]c2ccc(C[C@H]3COC(=O)N3)cc12 [Zolmitriptan]", "READOUT UNIT": "%", "READOUT NUMBER": 80}

Quick request: % Phosphatase Activity (compared to DMSO) PRL-3 for each listed item, please.
1. OCC(CO)N[C@H]1C[C@](O)(CO)[C@@H](O)[C@H](O)[C@H]1O [Voglibose]
2. NC[C@H]1O[C@H](O[C@H]2[C@H](O)[C@@H](O[C@H]3O[C@H](CO)[C@@H](O)[C@H](N)[C@H]3O)[C@H](N)C[C@@H]2N)[C@H](N)C[C@@H]1O [Tobramycin]

75
91

Please give % Phosphatase Activity (compared to DMSO) PRL-3, item by item, for the list that follows.
1. COc1nc(C)cnc1NS(=O)(=O)c1cccnc1-c1ccc(-c2nnco2)cc1 [Zibotentan (ZD4054)]
2. CC(=O)OCC(COC(C)=O)OC(C)=O [Triacetin]
3. Cn1c(=O)c2[nH]cnc2n(C)c1=O [Theophylline]
4. Nc1ccn([C@H]2CC[C@@H](CO)O2)c(=O)n1 [Zalcitabine]
5. CN(C/C=C/C#CC(C)(C)C)Cc1cccc2ccccc12 [Terbinafine]
6. Nc1ccc(S(N)(=O)=O)cc1 [Sulfanilamide]
7. CN(C)CCN(Cc1ccccc1)c1ccccn1 [Tripelennamine HCl]
8. CN1CCN(c2nc(C3=C(c4c[nH]c5ccccc45)C(=O)NC3=O)c3ccccc3n2)CC1 [Sotrastaurin]

1. 94
2. 85
3. 84
4. 89
5. 84
6. 77
7. 112
8. 85

// batch mode: one % Phosphatase Activity (compared to DMSO) PRL-3 value per listed entry
1. CC(C)[C@H](N)C(=O)OCCOCn1cnc2c(=O)nc(N)[nH]c21.Cl [Valaciclovir HCl]
2. CCCc1nn(C)c2c(=O)[nH]c(-c3cc(S(=O)(=O)N4CCN(C)CC4)ccc3OCC)nc12 [Sildenafil]
3. O=c1oc2cc(O)ccc2s1 [Tioxolone]
4. CCCC(=O)[O-].[Na+] [Sodium butyrate]
5. O=C1O[C@H]([C@@H](O)CO)C([O-])=C1O.[Na+] [Sodium ascorbate]

[98, 99, 92, 89, 113]

---

Target: recombinant PRL-1 (Homo sapiens)
Construct: 6xHis (N, cleaved yes); made in house; host or cells: E. coli One Shot BL21 Star
Sequence (Q93096 whole entry): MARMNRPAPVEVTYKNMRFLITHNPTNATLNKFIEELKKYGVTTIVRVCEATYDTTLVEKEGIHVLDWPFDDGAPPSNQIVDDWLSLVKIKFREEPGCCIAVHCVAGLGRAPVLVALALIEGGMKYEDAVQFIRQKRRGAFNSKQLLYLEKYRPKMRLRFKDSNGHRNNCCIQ
Experiment: In vitro phosphatase assay (DiFMUP hydrolysis), PRL-1; also: test concentration or dose not given here
Type: biochemical
Structures can show the parent of a compound that is named as a salt.
Hi there, I'd appreciate the recorded % Phosphatase Activity (compared to DMSO) PRL-1 for every entry that follows.
// unit must come after the numeric part

Please review the entries below; each comes with its answer.
{"COMPOUND": "O=C1CN(/N=C/c2ccc([N+](=O)[O-])o2)C(=O)N1", "RESULT": "76%"}
{"COMPOUND": "CN(C)CCC=C1c2ccccc2C=Cc2ccccc21 [Cyclobenzaprine HCl]", "RESULT": "104%"}
{"COMPOUND": "NCCCC(O)(P(=O)(O)O)P(=O)(O)O [Alendronate]", "RESULT": "110%"}

Each compound below has a reported value. Please supply its % Phosphatase Activity (compared to DMSO) PRL-1.
1. c1ccc(C2CN3CCSC3=N2)cc1 (single isomer, unassigned; (-)) [(-)-Tetramisole]
2. Clc1ccc(C(Cn2ccnc2)OCc2ccsc2Cl)c(Cl)c1 (stereo not drawn)
3. NNc1nncc2ccccc12 [Hydralazine HCl]
4. CC(C)NCC(O)COc1ccc(CCOCC2CC2)cc1 (stereo not drawn)
5. NC(=O)C(c1ccccc1)(c1ccccc1)[C@@H]1CCN(CCc2ccc3c(c2)CCO3)C1
6. CCc1cnn2c(NCc3ccc[n+]([O-])c3)cc(N3CCCC[C@H]3CCO)nc12 [Dinaciclib (SCH727965)]

1. 93%
2. 83%
3. 102%
4. 109%
5. 100%
6. 87%

---

Target: recombinant PRL-1 (Homo sapiens)
Construct: 6xHis (N, cleaved yes); made in house; host or cells: E. coli One Shot BL21 Star
Experiment: In vitro phosphatase assay (DiFMUP hydrolysis), PRL-1; also: test concentration or dose not given here
Format: biochemical
Conditions: FDA-approved drug screen; compared to DMSO
Structures can show the parent of a compound that is named as a salt.
Field: % Phosphatase Activity (compared to DMSO) PRL-1. Provide a value for each of the compounds that follow.
Numbers only, in %.

Some entries whose results are on file:
{"COMPOUND": "CC(N)C12CC3CC(CC(C3)C1)C2 (stereo not shown)", "READOUT NUMBER": 91}
{"COMPOUND": "CCOC(=O)c1ccc(O)cc1", "READOUT NUMBER": 105}
{"COMPOUND": "Cc1ccccc1N1C(=O)c2cc(S(N)(=O)=O)c(Cl)cc2NC1C (stereo not shown)", "READOUT NUMBER": 144}

List % Phosphatase Activity (compared to DMSO) PRL-1 for every entry below, keeping the order given.
1. CN1C(=O)CCS(=O)(=O)C1c1ccc(Cl)cc1 (stereo not shown)
2. CC(=O)Oc1ccc(C(c2ccc(OC(C)=O)cc2)c2ccccn2)cc1
3. C#C[C@]1(OC(C)=O)CC[C@H]2[C@@H]3CCC4=C[C@@H](OC(C)=O)CC[C@@H]4[C@H]3CC[C@@]21C [Ethynodiol diacetate]
4. O=C(/C=C/C=C/c1ccc2c(c1)OCO2)N1CCCCC1
5. Cl.Cl.OCCN1CCN(CCCN2c3ccccc3Sc3ccc(C(F)(F)F)cc32)CC1 [Fluphenazine (dihydrochloride)]

[81, 88, 93, 125, 94]

Look up % Phosphatase Activity (compared to DMSO) PRL-1 for the entries below, preserving their order.
1. CCN(CCO)CCCOc1ccc2c(Nc3cc(CC(=O)Nc4cccc(F)c4)[nH]n3)ncnc2c1
2. Cc1ncc([N+](=O)[O-])n1CC(O)CCl (stereo not shown)
3. Cc1cc(=O)[nH]c(=S)[nH]1
4. CCOc1nc2cccc(C(=O)O)c2n1Cc1ccc(-c2ccccc2-c2nnn[nH]2)cc1

[91, 104, 110, 106]

Fill in % Phosphatase Activity (compared to DMSO) PRL-1 for each of the 5 compounds listed.
1. CC(C)n1c(/C=C/C(O)CC(O)CC(=O)O)c(-c2ccc(F)cc2)c2ccccc21 (stereo not shown) [Fluvastatin Sodium]
2. O=C(O)c1cc(O)c(O)c(O)c1
3. CC(COc1ccccc1)N(CCCl)Cc1ccccc1 (stereo not shown) [Phenoxybenzamine HCl]
4. O=C(c1ccc(F)c(F)c1Nc1ccc(I)cc1F)N1CC(O)([C@@H]2CCCCN2)C1
5. C=C1/C(=C\C=C2/CCC[C@]3(C)[C@@H]([C@H](C)/C=C/[C@H](C)C(C)C)CC[C@@H]23)C[C@@H](O)C[C@@H]1O

81
100
106
95
105

Would you mind listing % Phosphatase Activity (compared to DMSO) PRL-1 for each of the following compounds?
1. Cc1ccc(S(=O)(=O)NC(=O)NN2CC3CCCC3C2)cc1 (stereo not shown) [Gliclazide]
2. COc1cc2c(Oc3ccc(NC(=O)C4(C(=O)Nc5ccc(F)cc5)CC4)cc3F)ccnc2cc1OCCCN1CCOCC1
3. CCC[C@@H]1C[C@@H](C(=O)N[C@@H]([C@H]2O[C@H](SC)[C@H](O)[C@@H](O)[C@H]2O)[C@@H](C)O)N(C)C1 [Lincomycin HCl]
4. CC(=O)Oc1ccccc1C(=O)Nc1ncc([N+](=O)[O-])s1 [Nitazoxanide]
5. CN1CCOC(c2ccccc2)c2ccccc2C1 (stereo not shown) [Nefopam HCl]
6. COc1ccccc1OCC(O)CN1CCN(CC(=O)Nc2c(C)cccc2C)CC1 (stereo not shown)

1: 112; 2: 103; 3: 109; 4: 87; 5: 108; 6: 90

---

Give measured % Phosphatase Activity (compared to DMSO) PRL-3 for each item. Keep answers brief.
Biological target: recombinant PRL-3 (Homo sapiens)
Construct: 6xHis (N, cleaved yes); made in house; host or cells: E. coli One Shot BL21 Star
Test: In vitro phosphatase assay (DiFMUP hydrolysis), PRL-3; also: test concentration or dose not given here
Format: biochemical
Conditions: FDA-approved drug screen; compared to DMSO
Structures can show the parent of a compound that is named as a salt.
Give bare numbers, in %.

Sample answers from the record:
{"COMPOUND": "CCN(CC)CC(=O)Nc1c(C)cccc1C [Lidocaine]", "TEST SYSTEM": "recombinant PRL-3 (Homo sapiens)", "READOUT NUMBER": 63}
{"COMPOUND": "CO/N=C(\\C(=O)N[C@@H]1C(=O)N2C(C(=O)O)=C(COC(C)=O)CS[C@H]12)c1csc(N)n1 [Cefotaxime sodium]", "TEST SYSTEM": "recombinant PRL-3 (Homo sapiens)", "READOUT NUMBER": 91}
{"COMPOUND": "COC(=O)CCc1ccc(OCC(O)CNC(C)C)cc1 (centres unmarked) [Esmolol HCl]", "TEST SYSTEM": "recombinant PRL-3 (Homo sapiens)", "READOUT NUMBER": 73}

// each compound listed below needs its % Phosphatase Activity (compared to DMSO) PRL-3
1. CCN(CC)CCNC(=O)c1ccc(N)cc1 [Procainamide HCl]
2. OC[C@H]1O[C@@H](O[C@@H]2[C@@H](CO)OC(O)(CO)[C@H]2O)[C@H](O)[C@@H](O)[C@H]1O (mixture of isomers) [Lactulose]
3. CC(C)(C)C(=O)OCOP(=O)(COCCn1cnc2c(N)ncnc21)OCOC(=O)C(C)(C)C [Adefovir Dipivoxil]
4. CC(C)N(CCC(C(N)=O)(c1ccccc1)c1ccccn1)C(C)C (centres unmarked) [Disopyramide Phosphate]
5. O=C(O)Cc1ccccc1Nc1c(Cl)cccc1Cl [Diclofenac Sodium]
6. [H]/N=C(/N)N/C(=N/[H])NCCc1ccccc1 [Phenformin HCl]
7. CC(=O)OCC(=O)[C@@]1(O)CC[C@H]2[C@@H]3CCC4=CC(=O)CC[C@]4(C)[C@H]3C(=O)C[C@@]21C [Cortisone acetate]

1: 75; 2: 85; 3: 74; 4: 93; 5: 92; 6: 89; 7: 78
